Values from patent US9951063B2

molecular target: human CXCR3A (Homo sapiens (Human), UniProt P49682); test: FLIPR assay (inhibition of CXCL10-induced calcium signal); conditions: engineered CHO-K1 cells expressing human CXCR3A coupled to Galpha(16); Fluo-4-AM; CXCL10 agonist 20 nM; mean values where determined several times
Sequence (P49682 whole entry): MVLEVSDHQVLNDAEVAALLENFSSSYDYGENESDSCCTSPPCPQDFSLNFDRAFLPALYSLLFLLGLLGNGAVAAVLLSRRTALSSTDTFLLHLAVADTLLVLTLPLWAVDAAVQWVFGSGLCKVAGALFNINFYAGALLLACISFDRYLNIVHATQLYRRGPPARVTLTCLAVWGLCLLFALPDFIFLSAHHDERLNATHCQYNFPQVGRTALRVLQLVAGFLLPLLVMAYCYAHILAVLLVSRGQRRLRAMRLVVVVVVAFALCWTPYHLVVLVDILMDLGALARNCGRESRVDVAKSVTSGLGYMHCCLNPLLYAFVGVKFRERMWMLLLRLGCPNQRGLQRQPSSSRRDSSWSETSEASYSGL
measured.attribute: log10 of IC50 (log10 of the value in nM)
# log10 transformed; quantity=IC50; unit=nM

Consider the following items and state reported log10 of IC50 for each.
1. Cc1nc(C)n(CC(=O)N2CCN(c3ccc(C(F)(F)F)c4c3CN(c3cnc(N(C)C)nc3)CC4)C[C@H]2C)n1
2. C[C@@H]1CN(c2cccc3c2CN(C(=O)c2cccc(N(C)C)c2)CC3)CCN1C(=O)Cn1cnc2cccnc21
3. C[C@@H]1CN(c2cccc3c2CN(C(=O)C2CC2)CC3)CCN1C(=O)Cn1cnc2cccnc21
4. Cc1ccc(N2CCc3cccc(N4CCN(C(=O)Cn5cnc6cccnc65)[C@H](C)C4)c3C2)nc1
5. C[C@@H]1CN(c2cccc3c2CN(c2cncnc2)CC3)CCN1C(=O)Cn1cnc2cccnc21

Marked response:
1. 0.35
2. 1.92
3. 2.35
4. 1.05
5. 0.74
